- Study System: EHMT1 (Homo sapiens, UniProt Q9H9B1)
- Sequence (Q9H9B1 1-1298): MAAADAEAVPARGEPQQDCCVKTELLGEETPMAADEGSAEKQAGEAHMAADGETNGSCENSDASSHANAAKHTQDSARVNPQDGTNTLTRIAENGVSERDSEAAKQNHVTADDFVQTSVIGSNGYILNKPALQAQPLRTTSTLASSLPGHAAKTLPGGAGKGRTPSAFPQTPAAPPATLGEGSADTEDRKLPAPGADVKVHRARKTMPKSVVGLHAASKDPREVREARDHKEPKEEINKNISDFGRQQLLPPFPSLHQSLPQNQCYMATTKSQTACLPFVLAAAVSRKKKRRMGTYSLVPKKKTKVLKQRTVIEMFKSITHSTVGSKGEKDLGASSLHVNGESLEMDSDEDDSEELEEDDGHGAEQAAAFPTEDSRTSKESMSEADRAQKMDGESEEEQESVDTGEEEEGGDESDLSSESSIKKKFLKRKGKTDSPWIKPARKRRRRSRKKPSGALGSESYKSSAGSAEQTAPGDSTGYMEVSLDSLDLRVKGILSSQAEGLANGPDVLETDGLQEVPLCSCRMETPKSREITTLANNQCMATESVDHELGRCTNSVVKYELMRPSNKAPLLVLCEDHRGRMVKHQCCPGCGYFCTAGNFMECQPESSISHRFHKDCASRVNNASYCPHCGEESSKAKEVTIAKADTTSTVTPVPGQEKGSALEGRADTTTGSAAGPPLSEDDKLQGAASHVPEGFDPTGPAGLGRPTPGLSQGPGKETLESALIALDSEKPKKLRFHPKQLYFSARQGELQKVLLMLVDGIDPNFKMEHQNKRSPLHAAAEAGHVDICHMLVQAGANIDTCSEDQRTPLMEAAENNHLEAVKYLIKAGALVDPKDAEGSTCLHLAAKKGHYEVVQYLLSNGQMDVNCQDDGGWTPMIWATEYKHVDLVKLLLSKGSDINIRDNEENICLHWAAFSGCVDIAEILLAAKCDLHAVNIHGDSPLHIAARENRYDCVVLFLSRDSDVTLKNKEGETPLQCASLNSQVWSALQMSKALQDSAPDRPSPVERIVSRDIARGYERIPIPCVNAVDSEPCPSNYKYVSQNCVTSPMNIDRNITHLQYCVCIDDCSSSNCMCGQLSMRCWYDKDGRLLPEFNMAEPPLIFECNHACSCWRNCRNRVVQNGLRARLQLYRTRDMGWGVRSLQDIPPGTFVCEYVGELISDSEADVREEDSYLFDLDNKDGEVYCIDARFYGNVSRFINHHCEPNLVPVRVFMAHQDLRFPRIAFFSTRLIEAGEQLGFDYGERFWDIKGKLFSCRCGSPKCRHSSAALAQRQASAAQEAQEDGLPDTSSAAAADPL
- Run Description: EHMT1 enzyme assay on peptide substrate (EHMT1 PEP)
- Type: biochemical
- Measurement Conditions: Table VI; read-out: EHMT1 PEP IC50
pIC50: −log10 of the molar value.
Recorded measurements of pIC50, one per entry

Compound	pIC50
CNc1cc(C)nc(Nc2cnc(OC)c(OC[C@H](O)CN3CCCC3)c2)n1	6.00 to 7.00
COCCN1CCC(c2cc(C)nc3cc(OCCCN4CCCC4)c(OC)cc23)CC1	> 7.00
CNc1ccnc(Nc2ccc(OC)c(CNC[C@@H]3CCCN3)c2)n1	6.00 to 7.00

Asked: Record request: pIC50 value, item COc1cc2c(C)cc(N3CCCCC3)nc2cc1OCCCN1CCCC1
Given back: > 7.00

Asked: What measured pIC50 goes with CNc1cc(C)nc(Nc2c[nH]c(=O)c(OCCCN3CCCC3)c2)n1 ?
Given back: 5.00 to 6.00

Asked: GET /values?readout=pIC50&item= CNS(=O)(=O)CCNc1cc(C)nc(Nc2ccc(OC)c(OCCCN3CCCC3)c2)n1
Given back: > 7.00

Asked: Request the reported pIC50 associated with COc1cc2c(C3CCN(C)CC3)nc(N3CCCC3)nc2cc1OCCCN1CC(O)C1
Given back: 6.00 to 7.00
